Test system: Campylobacter jejuni
Experiment: Antibacterial activity against Campylobacter jejuni by NCCLS agar doubling dilution method
Format: functional
Give log10 MIC50 for every item shown.
Scale: decimal log of MIC50, MIC50 in µg/mL.

**Query** What value of log10 MIC50 has been recorded for this entry: CO[C@@]1(NC(=O)Cc2cccs2)C(=O)N2C(C(=O)O)=C(COC(N)=O)CS[C@@H]21 [CEFOXITIN]
**Result** 2.11

**Query** Field entry: CC1(C)S[C@@H]2[C@H](NC(=O)C(C(=O)O)c3ccccc3)C(=O)N2[C@H]1C(=O)O (some centres not stated) [CARBENICILLIN]
**Result** 2.11

**Query** Field entry: C[C@@H](O)[C@H]1C(=O)N2C(C(=O)O)=C(SCCNC=N)C[C@H]12 [IMIPENEM ANHYDROUS]
**Result** -1.52

**Query** Field entry: C[C@]1(Cn2ccnn2)[C@H](C(=O)O)N2C(=O)C[C@H]2S1(=O)=O [TAZOBACTAM]
**Result** 1.20

**Query** Field entry: C[C@H]1[C@H](NC(=O)/C(=N\OC(C)(C)C(=O)O)c2csc(N)n2)C(=O)N1S(=O)(=O)O [AZTREONAM]
**Result** 1.81

**Query** Field entry: C[C@@H](O)[C@H]1C(=O)N2C(C(=O)O)=C(S[C@@H]3CN[C@H](C(=O)N(C)C)C3)[C@H](C)[C@H]12 [MEROPENEM]
**Result** -1.82

**Query** Field entry: CC1(C)S[C@@H]2[C@H](NC(=O)Cc3ccccc3)C(=O)N2[C@H]1C(=O)O [PENICILLIN G]
**Result** 1.81

**Query** Field entry: CO/N=C(\C(=O)N[C@@H]1C(=O)N2C(C(=O)O)=C(COC(N)=O)CS[C@H]12)c1ccco1 [CEFUROXIME]
**Result** 2.11

**Query** Field entry: CO/N=C(\C(=O)N[C@@H]1C(=O)N2C(C(=O)O)=C(COC(C)=O)CS[C@H]12)c1csc(N)n1 [CEFOTAXIME]
**Result** 0.60

**Query** Field entry: CC1(C)S[C@@H]2[C@H](NC(=O)[C@H](C(=O)O)c3ccsc3)C(=O)N2[C@H]1C(=O)O [TICARCILLIN]
**Result** 1.81

**Query** Field entry: O=C(O)[C@H]1/C(=C/CO)O[C@@H]2CC(=O)N21 [CLAVULANIC ACID]
**Result** 0.60

**Query** Field entry: Cc1onc(-c2ccccc2Cl)c1C(=O)N[C@@H]1C(=O)N2[C@@H]1SC(C)(C)[C@@H]2C(=O)O [CLOXACILLIN]
**Result** 2.41

**Query** Field entry: CC1(C)S[C@@H]2[C@H](NC(=O)[C@H](N)c3ccccc3)C(=O)N2[C@H]1C(=O)O [AMPICILLIN]
**Result** 1.81

**Query** Field entry: CC1(C)S[C@@H]2[C@H](NC(=O)[C@H](N)c3ccc(O)cc3)C(=O)N2[C@H]1C(=O)O [AMOXICILLIN]
**Result** 1.81
